# TARGET OR TEST SYSTEM: hGLP-1R (Homo sapiens, UniProt P43220)
# Sequence (P43220 24-463): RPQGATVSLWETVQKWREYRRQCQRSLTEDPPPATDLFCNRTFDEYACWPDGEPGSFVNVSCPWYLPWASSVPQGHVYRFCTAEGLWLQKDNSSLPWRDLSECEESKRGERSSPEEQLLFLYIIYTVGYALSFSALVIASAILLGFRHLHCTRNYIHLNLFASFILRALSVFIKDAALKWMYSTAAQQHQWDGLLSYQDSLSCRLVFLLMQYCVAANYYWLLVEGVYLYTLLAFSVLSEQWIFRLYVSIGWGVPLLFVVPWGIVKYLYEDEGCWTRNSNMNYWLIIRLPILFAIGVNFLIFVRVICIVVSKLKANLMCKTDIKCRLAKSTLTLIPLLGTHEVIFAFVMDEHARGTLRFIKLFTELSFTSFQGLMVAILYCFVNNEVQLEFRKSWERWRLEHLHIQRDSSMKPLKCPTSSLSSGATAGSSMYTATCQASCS
# PROTOCOL DETAILS: Functional cAMP activity in the presence of 1% HSA
# Format: cell-based
# APPLIED CONDITIONS: read-out: cAMP Rel EC50, hGLP-1R
Starred links: 1 amine or outer side, 2 acyl side, 3 side chain; linkers in the order of their positions; H or OH if unused. Non-standard residues stand in square brackets, D forms with d. Groups on a side chain read outwards from the residue. *: point of attachment. C20 diacid = O=C(O)CCCCCCCCCCCCCCCCCCC(=O)*; C18 diacid = O=C(O)CCCCCCCCCCCCCCCCC(=O)*; Phe(4-CN) = N#Cc1ccc(C[C@H](N)C(=O)O)cc1; αMePhe(2-F) = C[C@](N)(Cc1ccccc1F)C(=O)O; γGlu = O=C(O)[C@H](CCC(=O)[*:2])N[*:1]; αMe4Pal = C[C@](N)(Cc1ccncc1)C(=O)O; αMeY = C[C@](N)(Cc1ccc(O)cc1)C(=O)O; 4Pal = N[C@@H](Cc1ccncc1)C(=O)O; αMeL = CC(C)C[C@](C)(N)C(=O)O; αMeS = C[C@](N)(CO)C(=O)O; Orn = NCCC[C@H](N)C(=O)O; AEEA = NCCOCCOCC(=O)O; Aib = CC(C)(N)C(=O)O
RECORDED ENDPOINT: pEC50
For clarity, pEC50 is expressed as the negative log10 of concentration in mol/L.

For H-Y[Aib]QGT[αMePhe(2-F)]TSD[4Pal]SI[αMeL]LDKK([γGlu-γGlu-C18 diacid])AQ[Aib]AFIEYLEEGGPSSGAPPPSGEGE-NH2 [Example 623] the substance record lists pEC50 as 7.21

For H-Y[Aib]QGTFTSDFSK[αMeL]LDKK([AEEA-γGlu-C18 diacid])AQ[Aib]AFIEYLLE[Aib]GPSSGEPPPSEG-NH2 [Example 46] the substance record lists pEC50 as 6.22

For H-Y[Aib]QGT[αMePhe(2-F)]TSD[4Pal]SI[αMeL]LD[Orn]K([AEEA-γGlu-C18 diacid])AQ[αMe4Pal]EFI[dE][αMeY]LAEGGPSSGAPPPSGS-NH2 [Example 642] the substance record lists pEC50 as 7.17

For H-Y[Aib]QGT[αMePhe(2-F)]TSD[Phe(4-CN)]SILLDKQAQK([AEEA-AEEA-γGlu-C20 diacid])AFIEYLLEGGPSSGEPPPSAG-NH2 [Example 350] the substance record lists pEC50 as 6.44

For H-Y[Aib]QGT[αMePhe(2-F)]TSD[4Pal][αMeS]I[αMeL]LD[Orn]K([AEEA-γGlu-C18 diacid])AQ[αMe4Pal]EFI[dE][αMeY]LIEGGPSSGEPPPSGGGE-NH2 [Example 742] the substance record lists pEC50 as 7.48

----------
Below, each of the substances is paired with its reported EC50 value.
# TARGET OR TEST SYSTEM: hGLP-1R (Homo sapiens, UniProt P43220)
# PROTOCOL DETAILS: Functional cAMP activity in the presence of 1% HSA
# Type: cell-based
# APPLIED CONDITIONS: read-out: cAMP Rel EC50, hGLP-1R
Starred links: 1 amine or outer side, 2 acyl side, 3 side chain; linkers in the order of their positions; H or OH if unused. Non-standard residues stand in square brackets, D forms with d. Groups on a side chain read outwards from the residue. *: point of attachment. C20 diacid = O=C(O)CCCCCCCCCCCCCCCCCCC(=O)*; C18 diacid = O=C(O)CCCCCCCCCCCCCCCCC(=O)*; αMePhe(2-F) = C[C@](N)(Cc1ccccc1F)C(=O)O; γGlu = O=C(O)[C@H](CCC(=O)[*:2])N[*:1]; αMeL = CC(C)C[C@](C)(N)C(=O)O; Orn = NCCC[C@H](N)C(=O)O; AEEA = NCCOCCOCC(=O)O; Aib = CC(C)(N)C(=O)O
Form entry: value (µM) — number only.

H-Y[Aib]QGT[αMePhe(2-F)]TSDYSKLLDKIAQK([AEEA-γGlu-C20 diacid])AFIEYLIEGGPSSGAPPPEGE-NH2 [Example 357]: 0.248
H-Y[Aib]QGTFTSDFS[Orn][αMeL]LDKK([AEEA-γGlu-C18 diacid])AQ[Aib]AFIEYLLAGGPSSGAPPPEGS-NH2 [Example 93]: 0.397

# ---- query substance ----
For H-Y[Aib]QGTFTSDFSI[αMeL]LDKK([AEEA-γGlu-C20 diacid])AQ[Aib]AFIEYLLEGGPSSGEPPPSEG-NH2 [Example 288] the substance record lists EC50 as 0.616
